Values were extracted from PubChem BioAssay.

Listed here: items and their measured nuclei count.
- MEASUREMENT PROTOCOL: reduction of polyQ htt aggregates in cells – imaging, exon1htt(103Q)mCFP cells, high-content imaging, primary screen (AID 483);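 further: compound exposure lasted 3 days before fixation; percent of the per-plate median nuclei count of sample wells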
- TEST CONDITIONS: exon1htt(103Q)mCFP cell line, aggregate imaging, at 2 µM; measured here: cell count, toxicity
# number only, unit % dropped from output

Past entries and their recorded results:
CC(=O)C(Sc1ncnc2c1nnn2-c1ccc(F)cc1)C(=O)N(C)C (stereo not drawn) = 89.3
Cc1nc2ncnn2c(Nc2ccc3c(c2)OCCO3)c1C = 87.4

With those in mind, consider the next compound.
Field request: nuclei count | item: COc1ccc(-n2nnnc2SCC(=O)c2ccc(O)c(O)c2)cc1
91.8

====

- MEASUREMENT PROTOCOL: reduction of polyQ htt aggregates in cells – imaging, exon1htt(103Q)mCFP cells, high-content imaging, primary screen (AID 483);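 further: compound exposure lasted 3 days before fixation; percent of the per-plate median nuclei count of sample wells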
- TEST CONDITIONS: exon1htt(103Q)mCFP cell line, aggregate imaging, at 2 µM; measured here: cell count, toxicity
MEASURE: nuclei count (%)
# number only, unit % dropped from output

CC1CCCc2sc3nc(NCc4ccco4)n4ncnc4c3c21 (stereo not drawn) = 17.7
O=C(CC(=O)c1cc(Cl)ccc1O)c1ccccc1 = 99.3
c1cn2cc(CSC3CCCCC3)nc2s1 = 107
COC(=O)c1ccccc1NC(=O)N1CCCC1 = 99.5
CC(C)(C)c1cc(CCC(=O)N2CCNCC2)c(C(C)(C)C)cc1O = 102
Cc1noc(/C=C/N(C)C)c1S(=O)(=O)N1CCc2ccccc21 = 89.8
O=C1c2ccccc2C(=O)N1CCC(=O)N1CCc2ccccc21 = 92.8

With those in mind, consider the next molecule.
Field request: nuclei count | item: CC(=O)c1cccc(S(=O)(=O)NCC(c2ccco2)N2CCCCC2)c1 (stereo not drawn)
107

====

- MEASUREMENT PROTOCOL: inhibitors of TNFa-induced NFkB p65 translocation, primary screen, imaging, HUVEC, MLSMR starter and 10KST1 sets (AID 438);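 further: compound added about 3h40 before a 20 min TNFalpha stimulation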
- TEST CONDITIONS: HUVEC TNFa-induced p65 nuclear translocation; measured here: nuclei count (cytotoxicity indicator), at 2.08 µM
Assign true (1) to entries whose cell count meets or exceeds 500; assign false (0) to the rest.

CCC(C)(C(=O)NC1CCCC1)N(Cc1cccs1)C(C)=O (configuration not stated) = false (0)
CC1CCC(C(=O)NC(C(=O)NCCN2CCC(C)CC2)C(C)C)CC1 (configuration not stated) = false (0)
CCOC(=O)Nc1ccc(NS(=O)(=O)c2ccc(C)cc2)cc1 = false (0)
CCOc1ccc(NCc2nnc(SCC(=O)Nc3cc(C)on3)n2-c2ccccc2OC)cc1 = false (0)
COc1ccccc1N1CCN(C(=O)C2CCCO2)CC1 (configuration not stated) = false (0)
COC(=O)[C@H](C)NC(=O)Nc1cc(OC)ccc1OC = true (1)

cell count >= 500 for Cc1ccc(CCNC(=O)C2CCCN(S(=O)(=O)c3cnc[nH]3)C2)cc1 (configuration not stated) ?
true (1)

cell count >= 500 for O=C(NCCN1C(=O)C2C3C=CC(C3)C2C1=O)N1CCOCC1 (configuration not stated) ?
true (1)

cell count >= 500 for CCOc1ccc(N2CC(C(=O)NCCc3ccc(OC)c(OC)c3)CC2=O)cc1 (configuration not stated) ?
false (0)

cell count >= 500 for Cc1ccc(S(=O)(=O)Cn2nnnc2CN(Cc2ccco2)CC2CCCO2)cc1 (configuration not stated) ?
false (0)

cell count >= 500 for Cc1c(NC(=O)CSc2nnc3sc4ccccc4n23)c(=O)n(-c2ccccc2)n1C ?
true (1)
